Biological target: haematopoietic prostaglandin D synthase (H-PGDS) (Homo sapiens, UniProt O60760)
Construct: Full length human H-PGDS cDNA (Invitrogen Ultimate ORF IOH13026) was amplified by PCR; made in house; host or cells: E. coli BL21 (DE3*), vector pET22b+
Sequence (O60760 whole entry): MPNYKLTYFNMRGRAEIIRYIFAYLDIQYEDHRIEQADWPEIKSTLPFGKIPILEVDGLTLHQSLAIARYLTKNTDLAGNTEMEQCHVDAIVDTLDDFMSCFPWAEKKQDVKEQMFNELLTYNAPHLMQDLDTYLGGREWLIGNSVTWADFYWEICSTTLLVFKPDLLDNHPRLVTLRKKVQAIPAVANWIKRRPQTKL
Assay: H-PGDS RapidFire High Throughput Mass Spectrometry Assay
Type: biochemical
Details: H-PGDS RapidFire MS assay, mean pIC50; read-out: Potency Range (mean pIC50) (converted)
Each entry below lists one item and its recorded IC50 value.

Reference set (7 entries):
MOLECULE | IC50
C[C@]1(O)CC[C@@H](NC(=O)c2cnc3cc(OC(F)F)c(Cl)cc3c2)CC1 | 10 to 79.4 nM
CN(C)C(=O)[C@H]1CC[C@H](NC(=O)c2cnc3cc(OC(F)F)ccc3c2)CC1 | 10 to 79.4 nM
CC(C)(O)[C@H]1CC[C@H](NC(=O)c2cnc3cc(SC(F)F)c(F)cc3c2)CC1 | 10 to 79.4 nM
O=C(N[C@H]1CCC[C@H]1O)c1cnc2cc(OC(F)F)c(F)cc2c1 | 100 to 1000 nM
O=C(N[C@H]1CCNC1=O)c1cnc2cc(OC(F)F)c(F)cc2c1 | 10 to 79.4 nM
O=C(N[C@H]1CC[C@H]([C@@H](O)C(F)(F)F)CC1)c1cnc2cc(OC(F)F)ccc2c1 (single isomer, unassigned) | < 10 nM
O=C(N[C@H]1CC[C@H](N2CC(O)(C(F)(F)F)C2)CC1)c1cnc2cc(OC(F)F)c(Cl)cc2c1 | < 10 nM

Query :: Would you mind telling me what IC50 value was observed for CC(C)(O)CO[C@H]1CC[C@H](NC(=O)c2cnc3cc(OC(F)F)ccc3c2)CC1 ?
Result :: 10 to 79.4 nM

###

Biological target: haematopoietic prostaglandin D synthase (H-PGDS) (Homo sapiens)
Construct: Full length human H-PGDS cDNA (Invitrogen Ultimate ORF IOH13026) was amplified by PCR; made in house; host or cells: E. coli BL21 (DE3*), vector pET22b+
Assay: H-PGDS RapidFire High Throughput Mass Spectrometry Assay
Type: biochemical
Conditions: in at least one experimental run; read-out: H-PGDS pIC50 value (converted)
Structures can show the parent of a compound that is named as a salt.
ENDPOINT_NAME: IC50 (nM)
Write it as a number; the unit nM goes unstated.

MOLECULE | QUANTITY_UNIT | IC50
N#Cc1cc2cc(C(=O)N[C@H]3CCNC3=O)cnc2cc1C1CC1 [Example 25, hydrochloride] | nM | 25.1
CC(C)(O)[C@H]1CC[C@H](NC(=O)c2cnc3cc(OC(F)F)c(Cl)cc3c2)CC1 [Example 116] | nM | 2.51
O=C(N[C@H]1CC[C@H](C(O)C(F)(F)F)CC1)c1cnc2cc(OC(F)F)ccc2c1 (some centres unmarked) [Example 15] | nM | 7.94
CN(C)c1cc2ncc(C(=O)N[C@H]3CC[C@H](C(C)(C)O)CC3)cc2cc1F [Example 160] | nM | 3.98
O=C(N[C@H]1C[C@H](N2CC(O)(C(F)(F)F)C2)C1)c1cnc2cc(OC(F)F)c(Cl)cc2c1 [Example 214] | nM | 6.31
CC(C)(O)[C@H]1C[C@H](NC(=O)c2cnc3cc(OC(F)F)c(Cl)cc3c2)C1 [Example 118] | nM | 10
C[C@H]1CCN1c1cc2ncc(C(=O)N[C@H]3CC[C@H](C(C)(C)O)CC3)cc2cc1Cl [Example 187] | nM | 6.31

As a next step, examine the molecule that follows.
Query :: Would you mind telling me what IC50 value was observed for CC1(C)CC(NC(=O)c2cnc3cc(OC(F)F)c(Cl)cc3c2)CCO1 (centres unmarked) [Example 150] ?
Result :: 39.8

###

Biological target: haematopoietic prostaglandin D synthase (H-PGDS) (Homo sapiens)
Construct: Full length human H-PGDS cDNA (Invitrogen Ultimate ORF IOH13026) was amplified by PCR; made in house; host or cells: E. coli BL21 (DE3*), vector pET22b+
Experiment: H-PGDS RapidFire High Throughput Mass Spectrometry Assay
Type: biochemical
Conditions: H-PGDS RapidFire MS assay, mean pIC50; read-out: Potency Range (mean pIC50) (converted)
Each entry below lists one item and its recorded IC50 value.

Reference set (2 entries):
COMPOUND | MEASURED
C[C@]1(O)CC[C@H](NC(=O)c2cnc3cc(OC(F)F)c(Cl)cc3c2)C1 (racemic) | 10 to 79.4 nM
Cn1nnnc1N1CCC(NC(=O)c2cnc3cc(C4CC4)c(C#N)cc3c2)CC1 | 10 to 79.4 nM

As a next step, examine the compound that follows.
Query :: Would you mind telling me what IC50 value was observed for O=C1CC(NC(=O)c2cnc3cc(C4CC4)c(Cl)cc3c2)c2ccccc2N1 (stereo not drawn) ?
Result :: < 10 nM

###

Target: haematopoietic prostaglandin D synthase (H-PGDS) (Homo sapiens, UniProt O60760)
Construct: Full length human H-PGDS cDNA (Invitrogen Ultimate ORF IOH13026) was amplified by PCR; made in house; host or cells: E. coli BL21 (DE3*), vector pET22b+
Assay: H-PGDS RapidFire High Throughput Mass Spectrometry Assay
Format: biochemical
Conditions: H-PGDS RapidFire MS assay, mean pIC50; read-out: Potency Range (mean pIC50) (converted)
Counter-ions that a name gives are not always drawn.
ENDPOINT_NAME: IC50

COMPOUND | ENDPOINT_NAME | MEASURED
O=C(N[C@H]1CONC1=O)c1cnc2cc(C3CC3)c(Cl)cc2c1 | IC50 | < 0.01 µM
COc1ccc2cc(C(=O)Nc3nccs3)cnc2c1F [Example 47, hydrochloride] | IC50 | 0.01 to 0.0794 µM
O=C(Nc1nccs1)c1cnc2cc(OC(F)F)ccc2c1 | IC50 | 0.01 to 0.0794 µM

Query :: Would you mind telling me what IC50 value was observed for CCOC(=O)c1cnc(N2CC(NC(=O)c3cnc4cc(OC(F)F)c(F)cc4c3)C2)o1 ?
Result :: 0.01 to 0.0794 µM
